Each recorded value in this set is attributed to patent US20210115124A1.

# Assayed system: T1, human VEGF (hVEGF) (human, UniProt P15692 181-395);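 note: fab variants injected over immobilized hVEGF on a CM5 chip, rate constants fitted with a one-to-one Langmuir model, Kd derived as koff over kon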
# T1 construct: also called VEGF-A
# T1 sequence: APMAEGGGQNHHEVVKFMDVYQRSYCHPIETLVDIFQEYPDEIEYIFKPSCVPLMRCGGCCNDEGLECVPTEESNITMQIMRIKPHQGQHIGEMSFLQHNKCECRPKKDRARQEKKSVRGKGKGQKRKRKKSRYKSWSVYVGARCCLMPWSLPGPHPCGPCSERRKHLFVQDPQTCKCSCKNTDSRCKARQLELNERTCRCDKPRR
# Assay explanation: SPR
Documented koff across a set of binders
Measurement kind: koff (s⁻¹)

binder="R19HCLC5 (Fab, V domains shown, Fab) VH: EEQLVEEGGGLVQPGESLRLSCAASGFEISDYWIHWVRQEPGEGLEWVAGITPAGGYEYYADSVEGRFTISADTSENTAYLQMNELRAEDTAVYYCARFVFFLPYAMDYWGQGELVTVSS VL: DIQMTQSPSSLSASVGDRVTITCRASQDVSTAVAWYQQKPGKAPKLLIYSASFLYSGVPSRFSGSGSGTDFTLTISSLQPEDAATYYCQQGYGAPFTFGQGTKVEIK" measurement_kind=koff observed_value=4.41e-05
binder="HCcombo (Fab, V domains shown, Fab) VH: EEQLVEEGGGLVQPGESLELSCAASGFEISDYWIHWVRQEPGEGLEWVAGITPAGGYEYYADSVEGRFTISADTSENTAYLQMNELRAEDTAVYYCARFVFFLPYAMDYWGQGELVTVSS VL: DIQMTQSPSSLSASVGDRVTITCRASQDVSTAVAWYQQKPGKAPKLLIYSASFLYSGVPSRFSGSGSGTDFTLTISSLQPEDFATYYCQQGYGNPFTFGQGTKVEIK" measurement_kind=koff observed_value=0.000274
binder="LCcombo3 (G6.31 WT VH with LCcombo3 VL) (Fab, V domains shown, Fab) VH: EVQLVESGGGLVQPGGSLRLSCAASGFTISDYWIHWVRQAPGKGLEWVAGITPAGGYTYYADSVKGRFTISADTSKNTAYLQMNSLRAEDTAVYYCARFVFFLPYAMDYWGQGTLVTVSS VL: DIQMTQSPESLSASVGDEVTITCRASQDVSTAVAWYQQKPGEAPKLLIYSASFLYSGVPSRFSGSGSGTDFTLTISSLQPEDAATYYCQQGYGAPFTFGQGTKVEIK" measurement_kind=koff observed_value=0.000768
binder="LCcombo1 (G6.31 WT VH with LCcombo1 VL) (Fab, V domains shown, Fab) VH: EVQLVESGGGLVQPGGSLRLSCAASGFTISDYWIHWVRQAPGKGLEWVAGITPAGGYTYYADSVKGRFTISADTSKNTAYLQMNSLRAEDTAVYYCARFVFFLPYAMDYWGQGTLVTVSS VL: DIQMTQSPESLSASVGDEVTITCRASQDVSTAVAWYQQKPGKAPKLLIYSASFLYSGVPSRFSGSGSGTDFTLTISSLQPEDAATYYCQQGYGAPFTFGQGTKVEIK" measurement_kind=koff observed_value=0.00101
binder="R19HCLC2 (Fab, V domains shown, Fab) VH: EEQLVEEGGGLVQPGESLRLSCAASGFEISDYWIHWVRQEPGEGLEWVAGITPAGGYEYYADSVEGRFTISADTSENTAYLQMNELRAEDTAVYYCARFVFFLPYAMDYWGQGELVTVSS VL: DIQMTQSPSSLSASVGDEVTITCRASQDVSTAVAWYQQKPGEAPKLLIYSASFLYSGVPSRFSGSGSGTDFTLTIESLQPEDAATYYCQQGYGAPFTFGQGTKVEIK" measurement_kind=koff observed_value=4.67e-05
binder="HCLC4 (Fab, V domains shown, Fab) VH: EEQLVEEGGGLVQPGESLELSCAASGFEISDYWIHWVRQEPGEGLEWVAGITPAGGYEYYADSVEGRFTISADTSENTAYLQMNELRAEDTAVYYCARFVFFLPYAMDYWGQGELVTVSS VL: DIQMTQSPSSLSASVGDEVTITCRASQDVSTAVAWYQQKPGKAPKLLIYSASFLYSGVPSRFSGSGSGTDFTLTISSLQPEDAATYYCQQGYGAPFTFGQGTKVEIK" measurement_kind=koff observed_value=0.000608
binder="R19HCLC4 (Fab, V domains shown, Fab) VH: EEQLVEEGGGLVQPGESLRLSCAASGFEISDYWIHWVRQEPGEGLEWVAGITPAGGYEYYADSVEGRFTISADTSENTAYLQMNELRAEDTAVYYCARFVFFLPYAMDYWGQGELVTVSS VL: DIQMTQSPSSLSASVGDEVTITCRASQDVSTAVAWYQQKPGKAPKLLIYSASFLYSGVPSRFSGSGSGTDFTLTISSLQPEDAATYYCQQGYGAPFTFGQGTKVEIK" measurement_kind=koff observed_value=4.79e-05
binder="LCcombo4 (G6.31 WT VH with LCcombo4 VL) (Fab, V domains shown, Fab) VH: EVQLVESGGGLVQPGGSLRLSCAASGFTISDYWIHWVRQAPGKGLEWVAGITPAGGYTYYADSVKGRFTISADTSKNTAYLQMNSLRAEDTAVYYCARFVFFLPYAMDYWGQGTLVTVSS VL: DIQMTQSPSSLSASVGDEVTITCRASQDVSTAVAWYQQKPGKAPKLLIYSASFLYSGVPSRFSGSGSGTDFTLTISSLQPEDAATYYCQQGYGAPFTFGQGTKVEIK" measurement_kind=koff observed_value=0.000808
binder="HCLC3 (Fab, V domains shown, Fab) VH: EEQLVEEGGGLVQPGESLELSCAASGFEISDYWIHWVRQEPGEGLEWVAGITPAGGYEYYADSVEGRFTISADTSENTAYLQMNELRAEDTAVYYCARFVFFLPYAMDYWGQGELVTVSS VL: DIQMTQSPESLSASVGDEVTITCRASQDVSTAVAWYQQKPGEAPKLLIYSASFLYSGVPSRFSGSGSGTDFTLTISSLQPEDAATYYCQQGYGAPFTFGQGTKVEIK" measurement_kind=koff observed_value=0.000608
binder="G6.31 LC-N94A.LC-F83A (Fab, V domains shown, Fab; also called LC-F83A, LC-N94A; LCcombo5) VH: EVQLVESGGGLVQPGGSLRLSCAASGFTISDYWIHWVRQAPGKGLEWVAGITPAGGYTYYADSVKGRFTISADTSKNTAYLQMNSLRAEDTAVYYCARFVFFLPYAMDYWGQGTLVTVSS VL: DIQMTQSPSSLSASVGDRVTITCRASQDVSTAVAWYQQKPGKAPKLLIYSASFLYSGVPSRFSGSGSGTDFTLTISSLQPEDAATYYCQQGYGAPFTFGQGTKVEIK" measurement_kind=koff observed_value=0.000766
binder="LCcombo2 (G6.31 WT VH with LCcombo2 VL) (Fab, V domains shown, Fab) VH: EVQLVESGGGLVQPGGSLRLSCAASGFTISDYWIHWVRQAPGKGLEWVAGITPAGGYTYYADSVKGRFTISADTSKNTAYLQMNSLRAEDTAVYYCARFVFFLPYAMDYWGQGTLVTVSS VL: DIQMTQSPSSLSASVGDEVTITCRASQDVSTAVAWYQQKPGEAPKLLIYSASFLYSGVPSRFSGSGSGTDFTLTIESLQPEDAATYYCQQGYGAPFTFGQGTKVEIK" measurement_kind=koff observed_value=0.000667
